- System: T1, native human ESRRG protein (Estrogen-receptor related receptor gamma) (human, UniProt P62508 229-458, limits assumed)
- T1 construct: the screened protein is called 'native human ESRRG protein'; also called ESSRG; ERRγ
- T1 sequence (looked up): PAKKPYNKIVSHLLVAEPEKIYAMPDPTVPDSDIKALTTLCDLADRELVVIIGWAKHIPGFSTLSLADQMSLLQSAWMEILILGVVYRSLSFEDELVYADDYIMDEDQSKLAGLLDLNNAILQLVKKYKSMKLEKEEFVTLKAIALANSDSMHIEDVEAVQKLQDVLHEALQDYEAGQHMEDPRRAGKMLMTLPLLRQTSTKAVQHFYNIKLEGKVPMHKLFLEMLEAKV
- Assay Summary: custom peptide microarray density chip
Where no end group is shown, it is not given here.
The following binders are shown together with reported pKd values.
Please treat pKd as minus the base-10 logarithm of the molar concentration.

As a guide, the following entries are already answered.
| Binder | pKd |
| --- | --- |
| Ac-LYLLKHHP | 7.54 |
| Ac-ANNVRLLH | 7.52 |
| Ac-VLLHYGLY | 7.56 |
| Ac-QYPKMQRL | 7.75 |
| Ac-SLLFHLLK | 7.57 |
| Ac-IKQNHNNS | 7.90 |
| Ac-IFSKIRVY | 7.81 |
| Ac-VQYNYLQR | 7.71 |

Q: // lookup pKd for "Ac-IFSEMRVY"
A: 8.10

Q: Could you tell me which pKd is on file for "Ac-NSLRKHLL" ?
A: 7.61

Q: Any idea what its pKd is? The binder is "Ac-IFSYPRVY"
A: 7.76
